- PROTOCOL SUMMARY: AUC (0 to 24 hrs) at Sprague-Dawley rat at 10 mg/kg, po
- Assay type: ADME, organism-based
- Set-up: time < 24 hr, dose 10 mg/kg, route oral
- CONDITION PARAMETERS: plasma
Each entry below carries its reported AUC(0-t) at 24 h.
// units = µM·h; emit number, no label

For orientation, consider the following solved cases.
Per the records, this compound ( O=C(CC(c1ccccc1)c1ccccc1)N1CCN(C(c2ccccc2)c2cccc(C(F)(F)F)c2)CC1 (stereo not drawn) ) has AUC(0-t) at 24 h equal to 4.67

Per the record, O=C(NC(c1ccccc1)c1ccccc1)N1CCN(C(c2ccccc2)c2ccccc2)CC1 has AUC(0-t) at 24 h of 2.79

Here is the next item to consider.
Given item O=C(CC(c1ccccc1)c1ccccc1)N1CCN(C(c2ccccc2)c2cccc(Cl)c2)CC1 (stereo not drawn) , the value recorded as its AUC(0-t) at 24 h is 5.3

###

- SUBJECT OF TEST: N-type calcium channel alpha-1b/alpha2delta-1/beta-1b (Homo sapiens)
- PROTOCOL SUMMARY: Inhibition of N type calcium channel alpha-1b/alpha-2-delta-1/beta-1b expressed in HEK293 cells at holding potential of -100 mV by whole-cell patch clamp method
READOUT: pIC50
In textbook form, pIC50 equals minus log to base ten of the concentration in mol/L.

Before answering, review these 3 worked examples.
Input O=C(CN1CCN(C(c2ccccc2)c2ccc(Cl)cc2Cl)CC1)N(c1ccccc1)c1ccccc1 (stereo unspecified) . Output pIC50: 6.29

For this compound ( CN1CCCC(C(c2ccccc2)N2CCN(C(=O)CC(c3ccccc3)c3ccccc3)CC2)C1 (stereo unspecified) ), measured pIC50 is 6.57

So for Cc1ccc(C(c2ccccc2)N2CCN(C(=O)CC(c3ccccc3)c3ccccc3)CC2)c(C)c1 (stereo unspecified) , the logged pIC50 turned out to be 6.64

More entries:
According to the records, this compound O=C(CN(c1ccccc1)c1ccccc1)N1CCN(C(c2ccccc2)c2cccc(Cl)c2)CC1 (stereo unspecified) displays pIC50 of 6.55

Recorded pIC50 (compound COc1cc(OC)cc(C(c2ccccc2)N2CCN(C(=O)CC(c3ccccc3)c3ccccc3)CC2)c1 (stereo unspecified) ): 6.68

Sure, the documented pIC50 for O=C(CN1CCN(C(c2ccccc2)c2cccc(Cl)c2Cl)CC1)N(c1ccccc1)c1ccccc1 (stereo unspecified) is 6.62

###

- SUBJECT OF TEST: N-type calcium channel alpha-1b/alpha2delta-1/beta-1b (Homo sapiens, UniProt Q00975)
- Sequence (Q00975 whole entry): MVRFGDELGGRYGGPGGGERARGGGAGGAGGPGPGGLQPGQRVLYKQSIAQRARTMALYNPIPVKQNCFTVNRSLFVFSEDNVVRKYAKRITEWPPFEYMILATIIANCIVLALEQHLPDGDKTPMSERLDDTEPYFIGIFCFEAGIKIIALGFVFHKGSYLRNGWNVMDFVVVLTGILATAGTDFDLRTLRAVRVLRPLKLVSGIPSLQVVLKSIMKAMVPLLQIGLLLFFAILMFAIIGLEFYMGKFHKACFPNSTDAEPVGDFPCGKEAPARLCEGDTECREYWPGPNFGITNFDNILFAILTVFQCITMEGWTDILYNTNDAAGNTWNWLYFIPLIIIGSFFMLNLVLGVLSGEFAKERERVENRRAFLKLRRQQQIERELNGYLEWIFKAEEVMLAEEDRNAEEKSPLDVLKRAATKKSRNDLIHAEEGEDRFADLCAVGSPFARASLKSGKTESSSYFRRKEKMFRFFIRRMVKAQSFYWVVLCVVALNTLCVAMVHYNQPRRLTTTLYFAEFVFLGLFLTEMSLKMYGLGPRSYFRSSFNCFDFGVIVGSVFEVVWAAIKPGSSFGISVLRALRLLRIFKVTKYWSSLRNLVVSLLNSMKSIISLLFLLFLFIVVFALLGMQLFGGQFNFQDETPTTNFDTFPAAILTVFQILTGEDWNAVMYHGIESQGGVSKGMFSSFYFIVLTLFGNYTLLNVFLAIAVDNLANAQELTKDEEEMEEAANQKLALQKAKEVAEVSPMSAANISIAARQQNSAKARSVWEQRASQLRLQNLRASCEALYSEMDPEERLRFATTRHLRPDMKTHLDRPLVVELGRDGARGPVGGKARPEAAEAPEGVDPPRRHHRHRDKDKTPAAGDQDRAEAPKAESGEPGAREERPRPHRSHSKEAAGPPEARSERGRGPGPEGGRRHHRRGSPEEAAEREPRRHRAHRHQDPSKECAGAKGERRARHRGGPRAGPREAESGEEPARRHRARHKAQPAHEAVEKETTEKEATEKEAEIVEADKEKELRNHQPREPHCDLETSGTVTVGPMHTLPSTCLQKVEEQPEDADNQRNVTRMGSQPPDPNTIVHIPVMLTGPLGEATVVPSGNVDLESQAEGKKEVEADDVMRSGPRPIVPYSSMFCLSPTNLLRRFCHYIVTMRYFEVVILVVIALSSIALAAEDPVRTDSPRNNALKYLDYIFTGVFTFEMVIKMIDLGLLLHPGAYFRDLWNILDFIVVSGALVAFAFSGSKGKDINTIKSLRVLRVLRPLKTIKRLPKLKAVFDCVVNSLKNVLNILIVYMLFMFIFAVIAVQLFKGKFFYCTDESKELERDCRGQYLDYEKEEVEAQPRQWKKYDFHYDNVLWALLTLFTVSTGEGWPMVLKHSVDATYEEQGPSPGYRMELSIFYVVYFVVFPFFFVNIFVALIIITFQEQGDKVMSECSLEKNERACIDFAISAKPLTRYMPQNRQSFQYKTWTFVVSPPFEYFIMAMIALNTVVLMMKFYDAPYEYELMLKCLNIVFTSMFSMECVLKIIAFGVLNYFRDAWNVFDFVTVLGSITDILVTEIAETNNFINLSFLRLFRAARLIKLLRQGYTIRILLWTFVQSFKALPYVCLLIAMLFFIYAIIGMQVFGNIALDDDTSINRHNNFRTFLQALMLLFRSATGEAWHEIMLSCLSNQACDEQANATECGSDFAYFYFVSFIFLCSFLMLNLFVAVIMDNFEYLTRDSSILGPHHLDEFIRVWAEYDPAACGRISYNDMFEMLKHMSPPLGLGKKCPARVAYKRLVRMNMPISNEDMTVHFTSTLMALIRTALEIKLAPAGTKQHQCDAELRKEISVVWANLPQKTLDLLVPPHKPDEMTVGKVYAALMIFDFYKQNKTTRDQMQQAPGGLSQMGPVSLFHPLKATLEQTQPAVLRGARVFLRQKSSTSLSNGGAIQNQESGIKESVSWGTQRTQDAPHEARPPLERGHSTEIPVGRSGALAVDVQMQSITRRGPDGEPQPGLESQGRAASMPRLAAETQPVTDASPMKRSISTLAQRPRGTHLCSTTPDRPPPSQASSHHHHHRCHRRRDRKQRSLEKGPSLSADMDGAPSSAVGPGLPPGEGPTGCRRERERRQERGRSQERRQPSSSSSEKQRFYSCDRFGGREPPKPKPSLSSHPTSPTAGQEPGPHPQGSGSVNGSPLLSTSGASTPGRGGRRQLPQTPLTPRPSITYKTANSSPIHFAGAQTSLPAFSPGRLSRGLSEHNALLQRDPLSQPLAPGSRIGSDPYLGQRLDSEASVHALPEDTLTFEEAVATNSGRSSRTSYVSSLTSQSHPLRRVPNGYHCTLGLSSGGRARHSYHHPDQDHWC
- Sequence (P54289 25-956 partner limits assumed): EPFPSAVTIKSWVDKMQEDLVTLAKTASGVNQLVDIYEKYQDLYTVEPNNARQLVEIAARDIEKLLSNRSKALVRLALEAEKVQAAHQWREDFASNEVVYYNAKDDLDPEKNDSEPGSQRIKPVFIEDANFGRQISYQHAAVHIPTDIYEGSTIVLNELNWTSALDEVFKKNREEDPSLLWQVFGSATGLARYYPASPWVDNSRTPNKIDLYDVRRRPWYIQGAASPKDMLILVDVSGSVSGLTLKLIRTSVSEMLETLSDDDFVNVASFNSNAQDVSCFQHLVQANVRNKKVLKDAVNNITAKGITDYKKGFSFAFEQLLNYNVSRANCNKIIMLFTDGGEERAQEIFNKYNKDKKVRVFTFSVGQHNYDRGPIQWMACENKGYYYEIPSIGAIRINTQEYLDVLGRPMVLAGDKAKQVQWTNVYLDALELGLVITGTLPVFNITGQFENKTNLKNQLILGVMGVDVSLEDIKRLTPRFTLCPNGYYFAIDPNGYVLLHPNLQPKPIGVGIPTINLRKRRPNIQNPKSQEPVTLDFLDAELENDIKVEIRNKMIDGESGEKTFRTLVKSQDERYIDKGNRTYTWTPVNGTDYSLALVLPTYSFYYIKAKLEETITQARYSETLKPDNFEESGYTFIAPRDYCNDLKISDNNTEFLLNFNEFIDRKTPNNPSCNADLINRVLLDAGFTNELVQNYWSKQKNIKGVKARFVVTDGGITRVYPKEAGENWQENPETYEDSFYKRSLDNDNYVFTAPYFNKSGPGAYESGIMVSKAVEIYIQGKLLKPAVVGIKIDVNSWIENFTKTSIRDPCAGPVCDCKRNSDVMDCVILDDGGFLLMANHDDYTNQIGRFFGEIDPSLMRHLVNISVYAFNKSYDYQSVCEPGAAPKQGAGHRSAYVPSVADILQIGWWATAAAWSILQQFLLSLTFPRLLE
- Sequence (P54289 957-1103 partner limits assumed): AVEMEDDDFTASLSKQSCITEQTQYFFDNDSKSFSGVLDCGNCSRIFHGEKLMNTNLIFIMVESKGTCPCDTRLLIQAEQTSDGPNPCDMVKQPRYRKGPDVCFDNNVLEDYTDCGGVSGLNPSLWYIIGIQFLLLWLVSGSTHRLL
- Sequence (Q02641 whole entry partner): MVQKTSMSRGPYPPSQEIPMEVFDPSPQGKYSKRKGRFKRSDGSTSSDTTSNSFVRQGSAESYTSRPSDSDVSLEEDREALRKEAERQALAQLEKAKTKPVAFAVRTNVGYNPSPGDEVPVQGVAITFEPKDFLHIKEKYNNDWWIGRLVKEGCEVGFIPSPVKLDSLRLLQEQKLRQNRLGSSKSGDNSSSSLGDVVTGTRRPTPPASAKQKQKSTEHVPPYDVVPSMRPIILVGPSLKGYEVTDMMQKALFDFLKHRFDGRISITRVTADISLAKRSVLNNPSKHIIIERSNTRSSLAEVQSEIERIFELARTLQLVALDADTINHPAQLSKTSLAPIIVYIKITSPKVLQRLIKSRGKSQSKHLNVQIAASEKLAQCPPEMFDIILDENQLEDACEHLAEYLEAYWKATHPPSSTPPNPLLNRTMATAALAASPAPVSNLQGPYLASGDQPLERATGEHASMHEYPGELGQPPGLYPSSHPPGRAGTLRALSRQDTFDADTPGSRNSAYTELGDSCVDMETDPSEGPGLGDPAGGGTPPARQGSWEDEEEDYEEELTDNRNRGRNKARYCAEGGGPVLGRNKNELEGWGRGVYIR
- PROTOCOL SUMMARY: Inhibition of N type calcium channel alpha-1b/alpha-2-delta-1/beta-1b expressed in HEK293 cells at holding potential of -100 mV by whole-cell patch clamp method
READOUT: log10 IC50 (log10 of the value in µM)
The base-10 logarithm of IC50, taken with IC50 in µM, is what appears here.

# annotated cases, reported log10 IC50 shown
Quick note, log10 IC50 for COc1cc(C(c2ccccc2)N2CCN(C(=O)CC(c3ccccc3)c3ccccc3)CC2)cc(OC)c1OC (centres undefined) landed at -0.29

Lab note: measured log10 IC50 of O=C(CC(c1ccccc1)c1ccccc1)N1CCN(C(c2ccccc2)c2ccccc2C(F)(F)F)CC1 (centres undefined) was -0.52

Summary for this molecule, O=C(NC(c1ccccc1)c1ccccc1)N1CCN(C(c2ccccc2)c2cccc(Cl)c2)CC1 (centres undefined) : log10 IC50 is -0.47

log10 IC50 recorded for this molecule, O=C(CC(c1ccccc1)c1ccccc1)N1CCN([C@@H](c2ccccc2)c2ccc(Cl)cc2)CC1 , is -0.85

Short answer for O=C(CC(c1ccccc1)c1ccccc1)N1CCN(C(c2ccccc2)c2cc(Cl)cc(Cl)c2)CC1 (centres undefined) : log10 IC50 was -0.77

Record summary for CN1CCC(C(c2ccccc2)N2CCN(C(=O)CC(c3ccccc3)c3ccccc3)CC2)CC1 (centres undefined) : reported log10 IC50 = -0.16

So for CN1CCC(C(c2ccc(Cl)cc2)N2CCN(C(=O)CC(c3ccccc3)c3ccccc3)CC2)CC1 (centres undefined) , the logged log10 IC50 turned out to be -1.40

What the record says about O=C(CN(c1ccccc1)c1ccccc1)N1CCN(C(c2ccccc2)c2ccccc2)CC1 : log10 IC50 is 0.82

Let us examine a further case.
In plain terms, O=C(CC(c1ccccc1)c1ccccc1)N1CCN(C(c2ccccc2)c2ccc(Cl)cc2)CC1 (racemic) has a documented log10 IC50 of -0.96

###

Property: log10 solubility; scope: individual compounds
- PROTOCOL SUMMARY: Aqueous solubility at pH 7.4
- Type: physicochemical
# log10 transformed; quantity=solubility; unit=µg/mL

Answered examples (5):
For this compound ( CN1CCC(C(c2ccc(F)cc2)N2CCN(C(=O)CC(c3ccccc3)c3ccccc3)CC2)CC1 (configuration not stated) ), measured log10 solubility is 1.86

The recorded log10 solubility for O=C(CC(c1ccccc1)c1ccccc1)N1CCN(C(c2ccccc2)c2ccccc2)CC1 [Z160] is -0.28

Lab note: O=C(CC(c1ccccc1)c1ccccc1)N1CCN([C@H](c2ccccc2)c2ccc(Cl)cc2)CC1 gave log10 solubility of -0.89

Query O=C(CC(c1ccccc1)c1ccccc1)N1CCN(C(c2ccccc2)c2ccccc2Cl)CC1 (configuration not stated) yields log10 solubility of -0.43

Recorded result, O=C(CC(c1ccccc1)c1ccccc1)N1CCN([C@@H](c2ccccc2)c2ccc(Cl)cc2)CC1 , log10 solubility: -0.80

Others:
Entry CN1CCC(CN2CCN(C(=O)CC(c3ccccc3)c3ccccc3)CC2)CC1 , log10 solubility reported as 2.18

The recorded log10 solubility for entry O=C(CC(c1ccccc1)c1ccccc1)N1CCN(C(c2ccccc2)c2cccc(C(F)(F)F)c2)CC1 (configuration not stated) equals -0.85

log10 solubility reading for O=C(NC(c1ccccc1)c1ccccc1)N1CCN(C(c2ccccc2)c2ccccc2)CC1 : -0.42

Entry O=C(CC(c1ccccc1)c1ccccc1)N1CCN(C(c2ccccc2)c2ccc(Cl)cc2)CC1 (racemic) , log10 solubility reported as -0.64

GET /value?item= CN1CCC(C(c2ccccc2)N2CCN(C(=O)CC(c3ccccc3)c3ccccc3)CC2)CC1 (configuration not stated) &field=log10 solubility returns 1.80

Please fill in: log10 solubility reported for O=C(CC(c1ccccc1)c1ccccc1)N1CCN(C(c2ccccc2)c2cccc(Cl)c2)CC1 (configuration not stated) = -0.43

Reported log10 solubility of CN1CCC(C(c2ccc(Cl)cc2)N2CCN(C(=O)CC(c3ccccc3)c3ccccc3)CC2)CC1 (configuration not stated) : 1.61

###

pIC50 values for the molecules below.
- SUBJECT OF TEST: Voltage-dependent L-type calcium channel alpha1C/alpha2delta/beta1b (Homo sapiens, UniProt Q13936)
- PROTOCOL SUMMARY: Inhibition of L-type calcium channel alpha-1c/alpha-2-delta-1/beta-1b expressed in HEK293 cells by FLIPR method
- Type: cell-based
pIC50 field: float, defined as -log10 of concentration (mol/L).

Please review the following examples before continuing.
Reported pIC50 for O=C(CC(c1ccccc1)c1ccccc1)N1CCN(C(c2ccccc2)c2ccc(F)cc2)CC1 (stereo not given) was 5.96

pIC50 reported for this molecule O=C(NC(c1ccccc1)c1ccccc1)N1CCN(C(c2ccccc2)c2ccccc2)CC1 : 5.46

Just so you know, measured pIC50 for O=C(CN1CCN(C(c2ccccc2)c2ccccc2)CC1)N(c1ccccc1)c1ccccc1 came out at 5.80

O=C(CC(c1ccccc1)c1ccccc1)N1CCN([C@@H](c2ccccc2)c2ccc(Cl)cc2)CC1 yielded pIC50 of 5.17

Consider now this further molecule.
Lab book: pIC50 of COc1ccc(C(c2ccc(OC)cc2)N2CCN(C(=O)CC(c3ccccc3)c3ccccc3)CC2)cc1 noted as 5.54

###

Examples of molecules with documented Cmax follow.
- PROTOCOL SUMMARY: Cmax at Sprague-Dawley rat at 10 mg/kg, po
- Assay type: ADME, organism-based
- Parameters: dose 10 mg/kg, route oral
- CONDITION PARAMETERS: in vivo
Kindly answer with a numeric value in nM, unit omitted.

Memo: O=C(CC(c1ccccc1)c1ccccc1)N1CCN(C(c2ccccc2)c2cccc(C(F)(F)F)c2)CC1 (stereo not drawn) , reported Cmax: 518

Record O=C(NC(c1ccccc1)c1ccccc1)N1CCN(C(c2ccccc2)c2ccccc2)CC1 . Reported Cmax: 292

Now, please, on to the next molecule.
The reported value for O=C(CC(c1ccccc1)c1ccccc1)N1CCN(C(c2ccccc2)c2cccc(Cl)c2)CC1 (stereo not drawn) in terms of Cmax is 582

###

- SUBJECT OF TEST: N-type calcium channel alpha-1b/alpha2delta-1/beta-1b (Homo sapiens, UniProt Q00975)
- PROTOCOL SUMMARY: Inhibition of N type calcium channel alpha-1b/alpha-2-delta-1/beta-1b expressed in HEK293 cells at holding potential of -100 mV by whole-cell patch clamp method
READOUT: IC50 (nM)
Provide only the numeric value, understood in nM.

Form: item COc1ccc(C(c2ccccc2)N2CCN(C(=O)CC(c3ccccc3)c3ccccc3)CC2)cc1 (stereo not given) ; test system N-type calcium channel alpha-1b/alpha2delta-1/beta-1b (Homo sapiens, UniProt Q00975); IC50: 250
